# Tested on: SK-MEL-28 melanoma
# protocol_text: NCI-60 one-dose screen, 48 h
# condition: 10 µM unless noted
About 83,000 compounds went through this panel and 20% of them were active in at least one assay; those are over-represented in the sample as a whole. Active and inactive are the calls of the source. Rule for the calls: active = growth percent below 10; inactive = the rest.
Choose the fitting class; nothing outside active, inactive is accepted.

Sample answers from the record:
{"compound": "CCOC(=O)c1cc(C(=O)c2ccc(Br)cc2)n2cc(C)cc(C)c12", "subject_of_test": "SK-MEL-28 melanoma", "assigned_label": "inactive"}
{"compound": "COC(=O)C(N)CC(C)C (stereo not given)", "subject_of_test": "SK-MEL-28 melanoma", "assigned_label": "inactive"}

// query Please state the recorded outcome for this compound: O=C(/C=C/c1c[nH]c2ccccc12)c1cc2ccccc2o1
// result inactive

// query Please state the recorded outcome for this compound: NC(CSC(c1ccccc1)(c1ccccc1)c1ccccc1)C(=O)NCC(=O)O (stereo not given)
// result inactive

// query Please state the recorded outcome for this compound: COc1ccccc1Cn1cc2c(c1)-c1oncc1CC2
// result inactive

// query Please state the recorded outcome for this compound: Nc1cc(N)c2nc(-c3ccccc3)c(NCCc3ccc(Cl)c(Cl)c3)nc2c1
// result active

// query Please state the recorded outcome for this compound: O=C(Nc1ccc(-n2cc(-c3ccncc3)c(-c3ccc(Cl)c(O)c3)n2)cc1)c1ccc(Cl)c(Cl)c1
// result active

// query Please state the recorded outcome for this compound: CCOC(=O)C1CCCN1C(=O)C1(NC(C)=O)CCCC1 (stereo not given)
// result inactive

// query Please state the recorded outcome for this compound: COc1cc(OC)c(NC(=O)n2ncc3cc(Nc4ncnc5ccccc45)ccc32)cc1Cl
// result inactive

// query Please state the recorded outcome for this compound: C/C(=N\Nc1ccc(Cl)cn1)c1ccc2ccccc2n1
// result inactive

// query Please state the recorded outcome for this compound: CCCC[N+](C)(N)CCCC
// result inactive

// query Please state the recorded outcome for this compound: Cc1c(O)c(N=Nc2ccc(C(=O)O)c(O)c2)c2ccccc2c1O
// result inactive

// query Please state the recorded outcome for this compound: COC1=C(OC)C(=O)c2ccccc2C1=O
// result inactive

// query Please state the recorded outcome for this compound: CC[C@@H](C)/C=C(C)/C=C/C(=O)c1c(O)c(-c2ccc(OC(=O)[C@@]34CC[C@@](C)(C(=O)O3)C4(C)C)cc2)cn(O)c1=O
// result inactive

// query Please state the recorded outcome for this compound: N=c1c2c(=O)n3c(nc2nc2sc4ccc(Cl)cc4n12)-c1ccccc1Sc1ccccc1-3
// result inactive

// query Please state the recorded outcome for this compound: CC(C)(CNC1CCCCC1)OC(=O)c1ccccc1
// result inactive

// query Please state the recorded outcome for this compound: COc1cc(CCNc2cnc3cc(N)cc(N)c3n2)cc(OC)c1
// result inactive

###

# System: UACC-257 melanoma
# protocol_text: NCI-60 one-dose screen, 48 h
# condition: 10 µM unless noted
Compounds without any hit were thinned out: in the full panel of roughly 83,000, 20% have a hit. Activity calls are given as the source filed them. The calls were made as follows: active = growth percent below 10; inactive = the rest.
Choose the fitting class; nothing outside T = active, F = inactive is accepted.

Sample answers from the record:
{"molecule": "O=C(C(=O)N1CCOCC1)c1ccc(O[C@H]2O[C@H](CO)[C@@H](O)[C@H](O)[C@@H]2O)cc1", "subject_of_test": "UACC-257 melanoma", "assigned_label": "F"}
{"molecule": "COc1cccc(Cn2cc3c(c2)-c2oncc2CC3)c1", "subject_of_test": "UACC-257 melanoma", "assigned_label": "F"}
{"molecule": "O=C(c1ccccc1)c1ccccc1-c1ccccc1", "subject_of_test": "UACC-257 melanoma", "assigned_label": "F"}

// query Please state the recorded outcome for this molecule: C/C(=N\Nc1ccc(Cl)cn1)c1ccc2ccccc2n1
// result T

// query Please state the recorded outcome for this molecule: CC(Br)c1nc2ccccc2cc1C(N)=O (stereo unspecified)
// result F

###

# System: SR leukemia
# protocol_text: NCI-60 one-dose screen, 48 h
# condition: 10 µM unless noted
Compounds without any hit were thinned out: in the full panel of roughly 83,000, 20% have a hit. Activity calls are given as the source filed them. How the source made its calls: active means growth percent below 10; inactive means the rest.
Choose the fitting class; nothing outside active, inactive is accepted.

// query Please state the recorded outcome for this compound: CCC(C)C1NC(=O)C(CCCCN)NC(=O)C(CCCCN)NC(=O)C(CC(C)C)NC(=O)C(CCCCN)NC(=O)C(C(C)CC)NC(=O)C(C(C)C)NC(=O)C(C(C)CC)NC(=O)C(CCCCN)NC(=O)C(CCCCN)NC(=O)C(C)NC(=O)C(CCCCN)NC(=O)C(CC(C)C)NC1=O (centres undefined)
// result active

// query Please state the recorded outcome for this compound: N#CC1=C(N2CCOCC2)NC2c3ccccc3Sc3ccccc3N2C1=N (centres undefined)
// result inactive

// query Please state the recorded outcome for this compound: CCOC1=C(Cl)C(=O)C(OCC)=C(Cl)C1=O
// result inactive

// query Please state the recorded outcome for this compound: c1ccc(Nc2ccccn2)cc1
// result inactive

// query Please state the recorded outcome for this compound: Cc1ccc(NC(=O)CCl)cc1Cl
// result inactive

// query Please state the recorded outcome for this compound: COc1ccccc1CNCCCN1C(=O)c2ccc3c4c(ccc(c24)C1=O)C(=O)N(CCCNCc1ccccc1OC)C3=O
// result active

// query Please state the recorded outcome for this compound: CCCCCCCCCCC(C[N+](C)(C)C/C=C/c1ccccc1)C(O)c1ccccc1 (centres undefined)
// result active

// query Please state the recorded outcome for this compound: COC(=O)c1ccc2[nH]c(O)c(C(=Nc3ccc(N(C)C(=O)CN4CCN(C)CC4)cc3)c3cccc(OC)c3)c2c1
// result active

// query Please state the recorded outcome for this compound: CSCc1ncc(-c2ccc(C(F)(F)F)cc2)c(NC2CCCCCC2)n1
// result inactive

###

# Test system: HCC-2998 colon
# protocol_text: NCI-60 one-dose screen, 48 h
# condition: 10 µM unless noted
This is part of a sample that, as a whole, favours compounds with a hit. Of some 83,000 tested, about 20% had one in any assay. Calls of active or inactive are those of the source. How the source made its calls: active means growth percent below 10; inactive means the rest.
Choose the fitting class; nothing outside t = active, f = inactive is accepted.

// query Please state the recorded outcome for this compound: CC(=O)N1CCN(CCNC(=O)n2cc(-c3ccncc3)c(-c3cc(O)cc(Cl)c3)n2)CC1
// result f

###

# Test system: NCI-H23 lung
# protocol_text: NCI-60 one-dose screen, 48 h
# condition: 10 µM unless noted
About 83,000 compounds went through this panel and 20% of them were active in at least one assay; those are over-represented in the sample as a whole. Activity calls are given as the source filed them. The calls were made as follows: active = growth percent below 10; inactive = the rest.
Choose the fitting class; nothing outside active, inactive is accepted.

{"compound": "CC[C@@H](C)/C=C(C)/C=C/C(=O)c1c(O)c(-c2ccc(OC(=O)[C@@]34CC[C@@](C)(C(=O)O3)C4(C)C)cc2)cn(O)c1=O", "assigned_label": "inactive"}
{"compound": "O=C(Nn1cnc2ccccc21)N1CCCC1", "assigned_label": "inactive"}
{"compound": "O=C1CSC(c2ccccc2Cl)N1c1nnc(-c2ccncc2)o1 (stereo not drawn)", "assigned_label": "inactive"}
{"compound": "O=C1OC(c2ccc(-c3ccccc3)cc2)=C/C1=C/c1c2ccccc2cc2ccccc12", "assigned_label": "inactive"}
{"compound": "NC(CSC(c1ccccc1)(c1ccccc1)c1ccccc1)C(=O)NCC(=O)O (stereo not drawn)", "assigned_label": "inactive"}
{"compound": "Clc1ccc(N/N=C(\\c2ccccc2)c2ccccn2)nc1", "assigned_label": "inactive"}
{"compound": "COc1cc([C@@H]2c3cc4c(cc3[C@H](O)[C@H]3COC[C@@H]23)OCO4)cc(OC)c1OC", "assigned_label": "inactive"}
{"compound": "NC(=O)CC(NC(=O)COc1ccc(Cl)cc1Cl)C(=O)O (stereo not drawn)", "assigned_label": "inactive"}

// query Please state the recorded outcome for this compound: O=S(=O)(Cc1cccc2c(CS(=O)(=O)c3ccc(Cl)cc3)cccc12)c1ccc(Cl)cc1
// result inactive

// query Please state the recorded outcome for this compound: O=C(Nc1ccc(Cl)c(Cl)c1)O/N=C\c1c(Cl)ccc([N+](=O)[O-])c1Cl
// result inactive

// query Please state the recorded outcome for this compound: O=C(/C=C/c1c[nH]c2ccccc12)c1cc2ccccc2o1
// result inactive

// query Please state the recorded outcome for this compound: CCCCCCCCCC[N+](C)(C)C
// result inactive

// query Please state the recorded outcome for this compound: O=C(CN1CCN(c2cccc(Cl)c2)CC1)N1CCN(c2nnc(-c3ccc(Cl)cc3)c(-c3ccc(Cl)cc3)n2)CC1
// result inactive

// query Please state the recorded outcome for this compound: O=C1/C(=C/c2ccc(Cl)cc2)CCC/C1=C\c1ccc(Cl)cc1
// result inactive

###

# Tested on: OVCAR-4 ovarian
# protocol_text: NCI-60 one-dose screen, 48 h (100 = growth as untreated, 0 = no growth, -100 = all killed)
# condition: 10 µM unless noted
Compounds without any hit were thinned out: in the full panel of roughly 83,000, 20% have a hit.
readout_name: growth (%)
Just the number please, in %, no unit attached.

Here is how some compounds turned out for growth.
{"compound": "CC1=C(C)C(=O)C(C(C)C2=C(C)C(=O)C(C)=C(C)C2=O)=C(C)C1=O", "readout_name": "growth", "measured": 104}
{"compound": "CC(C)(C)C(=O)OCOP(=O)(OCOC(=O)C(C)(C)C)C1CC(O)N(O)C1=O (stereo not given)", "readout_name": "growth", "measured": 74.4}
{"compound": "COc1cc(-c2nc(/C=C3/C(=O)Nc4ccccc43)c3ccccn23)cc(OC)c1OC", "readout_name": "growth", "measured": 76.4}
{"compound": "COc1ccc2sc(-n3nc4nc5n(c(=O)c4c3N)-c3ccccc3Sc3ccccc3-5)nc2c1", "readout_name": "growth", "measured": 66.4}

# ---- query compound ----
Record COc1cc(-c2nn(-c3ccc(NC(=O)Nc4ccc(Cl)c(C(F)(F)F)c4)cc3)cc2-c2ccncc2)ccc1Cl , field growth: 23.1
